Data provenance: patent US9597342B2

Experiment: In vitro metabolic stability using human liver microsomes
Conditions: 10 μM, 30 min
Procedure: The metabolic stability of 15 GABAA receptor ligands using human liver microsomes was studied. The test articles were incubated at two concentrations (1 and 10 μM) and aliquots (100 μl) were removed at various time points (0, 15, 30 and 60 minutes), and analyzed by LC-MS/MS. […] Samples were analyzed by LC-MS/MS in multiple reaction monitoring mode using positive-ion electrospray ionization. […]
reported_endpoint: Mean % Remaining vs T = 0 min, Human Liver Microsomes (%)
Give a bare numeral; the unit % is implied.

# input Look up Mean % Remaining vs T = 0 min, Human Liver Microsomes: C#Cc1ccc2c(c1)C(c1ccccn1)=NCc1c(C(=O)NC)ncn1-2
# output 106

# input What do we get for C#Cc1ccc2c(c1)C(c1ccccc1F)=NCc1c(C(=O)NC)ncn1-2 ?
# output 103

# input What do we get for C#Cc1ccc2c(c1)C(c1ccccc1)=NCc1c(C(=O)OCCCOC(=O)c3ncn4c3CN(C)C(=O)c3cc(Cl)ccc3-4)ncn1-2 ?
# output 104

# input What do we get for C#Cc1ccc2c(c1)C(c1ccccn1)=NCc1c(C(=O)OCC)ncn1-2 ?
# output 90.7

----------
Entries annotated with measured Mean % Remaining vs T = 0 min, Human Liver Microsomes
Assay: In vitro metabolic stability using human liver microsomes
Settings: 1 μM, 15 min

>  <smiles_code>
C#Cc1ccc2c(c1)C(c1ccccc1)=NCc1c(C(=O)OCCCOC(=O)c3ncn4c3CN(C)C(=O)c3cc(Cl)ccc3-4)ncn1-2

>  <value_measured>
87.3%

$$$$
>  <smiles_code>
C#Cc1ccc2c(c1)C(c1ccccc1)=NCc1c(C(=O)O)ncn1-2

>  <value_measured>
108%

$$$$
>  <smiles_code>
C#Cc1ccc2c(c1)C(c1ccccc1F)=NCc1c(C(=O)OCC)ncn1-2

>  <value_measured>
13.5%

$$$$
>  <smiles_code>
C#Cc1ccc2c(c1)C(c1ccccc1)=NCc1c(C(=O)OCC)ncn1-2

>  <value_measured>
41.4%

$$$$
>  <smiles_code>
C#Cc1ccc2c(c1)C(c1ccccc1F)=N[C@H](C)c1c(C(=O)OCC)ncn1-2

>  <value_measured>
86.7%

$$$$

# input Look up Mean % Remaining vs T = 0 min, Human Liver Microsomes: C#Cc1ccc2c(c1)C(c1ccccc1F)=NCc1c(C(=O)OCCCOC(=O)c3ncn4c3CN=C(c3ccccc3F)c3cc(C#C)ccc3-4)ncn1-2
# output 97.1%

# input What do we get for C#Cc1ccc2c(c1)C(c1ccccn1)=NCc1c(-c3nc(C(C)C)no3)ncn1-2 ?
# output 97.8%

----------
Assay: In vitro metabolic stability using human liver microsomes
Conditions: 1 μM, 15 min
reported_endpoint: Mean % Remaining vs T = 0 min, Human Liver Microsomes (%)
Give a bare numeral; the unit % is implied.

>  <molecule>
C#Cc1ccc2c(c1)C(c1ccccn1)=NCc1c(C(=O)OCC)ncn1-2 [HZ-166]

>  <value_measured>
106

$$$$
>  <molecule>
C#Cc1ccc2c(c1)C(c1ccccn1)=NCc1c(C(=O)NC)ncn1-2 [HJ-I-40]

>  <value_measured>
109

$$$$
>  <molecule>
C#Cc1ccc2c(c1)C(c1ccccc1F)=N[C@@H](C)c1c(C(=O)OCC)ncn1-2 [SH-053-2′F-SCH3]

>  <value_measured>
6.18

$$$$
>  <molecule>
C#Cc1ccc2c(c1)C(c1ccccc1F)=NCc1c(C(=O)NC)ncn1-2 [HJ-I-037]

>  <value_measured>
97.7

$$$$

As a next step, examine the molecule that follows.
# input Look up Mean % Remaining vs T = 0 min, Human Liver Microsomes: C#Cc1ccc2c(c1)C(c1ccccn1)=NCc1c(C(=O)SC)ncn1-2 [ZJW-II-065]
# output 98.4
